assay_target: EGFR L858R/C797S (Homo sapiens, UniProt P00533, C797S/L858R)
Sequence (P00533 25-1210 C797S/L858R): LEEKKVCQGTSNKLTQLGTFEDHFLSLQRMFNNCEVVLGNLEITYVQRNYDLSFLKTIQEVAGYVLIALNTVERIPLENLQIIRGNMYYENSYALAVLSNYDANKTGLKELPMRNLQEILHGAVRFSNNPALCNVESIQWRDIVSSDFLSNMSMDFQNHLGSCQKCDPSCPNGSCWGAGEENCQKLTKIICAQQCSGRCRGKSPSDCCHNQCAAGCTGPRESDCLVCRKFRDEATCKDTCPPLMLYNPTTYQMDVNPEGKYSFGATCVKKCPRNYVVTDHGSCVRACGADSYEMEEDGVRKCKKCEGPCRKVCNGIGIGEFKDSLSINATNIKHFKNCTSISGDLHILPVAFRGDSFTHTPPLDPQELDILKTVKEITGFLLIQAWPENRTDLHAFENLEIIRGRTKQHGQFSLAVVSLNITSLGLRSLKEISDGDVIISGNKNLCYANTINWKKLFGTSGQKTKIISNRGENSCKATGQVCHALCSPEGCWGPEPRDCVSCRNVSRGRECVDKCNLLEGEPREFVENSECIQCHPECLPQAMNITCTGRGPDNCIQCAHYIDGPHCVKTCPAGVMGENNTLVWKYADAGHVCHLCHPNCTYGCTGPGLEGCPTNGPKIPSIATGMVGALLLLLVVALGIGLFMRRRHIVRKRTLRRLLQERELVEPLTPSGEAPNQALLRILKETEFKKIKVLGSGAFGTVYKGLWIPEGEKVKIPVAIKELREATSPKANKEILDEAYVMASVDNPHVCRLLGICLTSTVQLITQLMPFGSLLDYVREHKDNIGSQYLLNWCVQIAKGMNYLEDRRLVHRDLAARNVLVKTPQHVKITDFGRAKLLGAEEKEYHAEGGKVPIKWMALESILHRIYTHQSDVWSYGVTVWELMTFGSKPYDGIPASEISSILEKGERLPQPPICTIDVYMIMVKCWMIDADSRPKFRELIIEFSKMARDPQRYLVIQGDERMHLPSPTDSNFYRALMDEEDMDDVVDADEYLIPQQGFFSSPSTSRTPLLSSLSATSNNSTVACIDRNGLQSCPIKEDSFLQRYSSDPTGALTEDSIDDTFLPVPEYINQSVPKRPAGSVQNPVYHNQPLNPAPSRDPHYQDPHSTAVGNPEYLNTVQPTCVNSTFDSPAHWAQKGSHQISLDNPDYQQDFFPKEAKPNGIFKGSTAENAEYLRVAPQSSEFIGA
assay_notes: Biochemical EGFR kinase assay (Lance Ultra TR-FRET), double mutant L858R/C797S
details: IC50 L858R/C797S (nM) 100 μM ATP, 100 μM ATP
measured_metric: IC50

CNC(=O)[C@H]1CC[C@@H](Nc2cc(Nc3ccnc(-c4cnn(S(=O)(=O)C5CC5)c4)n3)ncc2-c2ccn(C(F)F)n2)CC1 [Example 24] = 14.3 nM

Ask: Quick one: IC50 for C[C@]1(O)CC[C@@H](Nc2cc(Nc3ccnc(-c4cnn(S(=O)(=O)C5CC5)c4)n3)ncc2-c2nc(C(F)F)cs2)CC1 [Example 122] ?
Reply: 8.5 nM

Ask: Using the record for O=S(=O)(C1CC1)n1cc(-c2nccc(Nc3cc(NC[C@H]4CC[C@@H](O)C4)c(-c4ccn(CC(F)(F)F)n4)cn3)n2)cn1 [Example 268] , report its IC50.
Reply: 10.7 nM

Ask: Recorded IC50 for CNC1CCC(Nc2cc(Nc3ccnc(-c4cnn(S(=O)(=O)C5CC5)c4)n3)ncc2-c2ccn(C(F)F)n2)CC1 (stereo not shown) [Example 16] , please?
Reply: 2.1 nM

Ask: # get_value(readout='IC50', item= CN(C)C(=O)C[C@H]1CC[C@@H](Nc2cc(Nc3ccnc(-c4cnn(S(=O)(=O)C5CC5)c4)n3)ncc2-c2ccn(C)n2)CC1 [Example 236] )
Reply: 2 nM

Ask: Find the recorded IC50 belonging to Cn1ccc(-c2cnc(Nc3ccnc(-c4cnn(S(=O)(=O)C5CC5)c4)n3)cc2N[C@H]2CC[C@H](CCO)CC2)n1 [Example 134] and report it.
Reply: 9.2 nM

Ask: I would be grateful if you could share the reported IC50 for CN(C)CCCn1ccc(-c2cnc(Nc3ccnc(-c4cnn(S(=O)(=O)C5CC5)c4)n3)cc2N[C@H]2CC[C@@H](C(C)(C)O)CC2)n1 [Example 278] .
Reply: 3.4 nM

Ask: Any idea what IC50 was measured for Cn1ccc(-c2cnc(Nc3ccnc(-c4cnn(S(=O)(=O)C5CC5)c4)n3)cc2N[C@H]2CC[C@H](CO)OC2)n1 [Example 227] ?
Reply: 962 nM

Ask: Which IC50 value belongs to CN(C)CC1CCC(Nc2cc(Nc3ccnc(-c4cnn(S(=O)(=O)C5CC5)c4)n3)ncc2-c2ccn(C3COC3)n2)CC1 (stereo not shown) [Example 284] ?
Reply: 0.9 nM
